# reported % of control remaining; entries follow
System: S. aureus MSSA476
Construct: MSSA476
Parameters: species or system S. aureus MSSA476 (TSB) or V. cholerae SAD30 (LB); 384-well bacterial growth screen at 25 uM, OD600 relative to DMSO control
Settings: relative growth, OD600, TSB; 25 µM; inhibitor
Out of some 3,200 compounds screened, about 75 (2%) showed an effect of 50% or more. Many of the other results were omitted from the sample, so strong results are more common in it than they were.
Write the numeric value and append its unit.

Below, 4 compounds whose answers are already recorded.
Inquiry: Consider the compound CC(C)OC(=O)c1ccc(NC(=O)C(C)Cl)cc1 (stereo not shown) and give its measured % of control remaining.
Reply text: 110.148%

Inquiry: Consider the compound COc1ccccc1NC(=O)C(C#N)=Cc1ccc(C)s1 and give its measured % of control remaining.
Reply text: 118.838%

Inquiry: Consider the compound O=C(CCl)NCC1CCCN(C(=O)C(F)(F)F)C1 (stereo not shown) and give its measured % of control remaining.
Reply text: 107.378%

Inquiry: Consider the compound Cc1cc(NC(=O)CCl)c([N+](=O)[O-])cc1C and give its measured % of control remaining.
Reply text: 87.2797%

Continuing:
Inquiry: Consider the compound Cc1cccc(N(Cc2ccccc2)C(=O)CCl)c1 and give its measured % of control remaining.
Reply text: 98%

Inquiry: Consider the compound CCNC(=O)C(C#N)=Cc1ccc(OC(F)F)cc1 and give its measured % of control remaining.
Reply text: 113.527%

Inquiry: Consider the compound N#CC(=Cc1cccs1)C(=O)Nc1ccc(C(=O)O)cc1 and give its measured % of control remaining.
Reply text: 109.212%

Inquiry: Consider the compound O=C(CCl)N(Cc1ccccc1)c1ccccc1 [4-G13, N-benzyl-2-chloro-N-phenylacetamide] and give its measured % of control remaining.
Reply text: 77.7513%

Inquiry: Consider the compound Cc1nn(-c2ccccc2)c(Cl)c1C=C(C#N)C(=O)NC(C)C and give its measured % of control remaining.
Reply text: 77.9026%

Inquiry: Consider the compound CC(Cl)C(=O)N[C@@H]1CCc2c(C#N)cccc21 (stereo partly shown) and give its measured % of control remaining.
Reply text: 122.927%

----------
Test system: S. aureus MSSA476
Construct: MSSA476
Parameters: species or system S. aureus MSSA476 (TSB) or V. cholerae SAD30 (LB); 384-well bacterial growth screen at 25 uM, OD600 relative to DMSO control
Conditions: relative growth, OD600, TSB; 25 µM; inhibitor
Screen size: about 3,200 compounds; about 75 (2%) showed an effect of 50% or more. Many of the other results were omitted from the sample, so strong results are more common in it than they were.
TEST_READOUT: % of control remaining (%)
Entry rule: numbers only, all in %.

Below, 3 compounds whose answers are already recorded.
Inquiry: GET /values?readout=% of control remaining&system=S. aureus MSSA476&item= N#CC(=Cc1ccc(F)c(F)c1)C(=O)NC1CCCCC1
Reply text: 94.0824

Inquiry: GET /values?readout=% of control remaining&system=S. aureus MSSA476&item= N#CC(=Cc1ccccc1)C(=O)NC1CCCCCCC1
Reply text: 98.9212

Inquiry: GET /values?readout=% of control remaining&system=S. aureus MSSA476&item= N#CC(=Cc1c(F)c(F)c(F)c(F)c1F)C(=O)NC1CCCCC1
Reply text: 32.5311

Continuing:
Inquiry: GET /values?readout=% of control remaining&system=S. aureus MSSA476&item= Cc1ccc(C=C(C#N)C(=O)NC2CCCCC2)cc1C
Reply text: 108.216

Inquiry: GET /values?readout=% of control remaining&system=S. aureus MSSA476&item= N#CC(=Cc1ccc([N+](=O)[O-])c(Cl)c1)C(=O)NC1CCCCC1
Reply text: 29.8755

----------
System: S. aureus MSSA476
Construct: MSSA476
Set-up: species or system S. aureus MSSA476 (TSB) or V. cholerae SAD30 (LB); 384-well bacterial growth screen at 25 uM, OD600 relative to DMSO control
Conditions: relative growth, OD600, TSB; 25 µM; inhibitor
Out of some 3,200 compounds screened, about 75 (2%) showed an effect of 50% or more. The entries come from a sample that favours strong results as a whole.
# reported % of control remaining; entries follow
Entry rule: numbers only, all in %.

Below, 5 compounds whose answers are already recorded.
Inquiry: GET /values?readout=% of control remaining&system=S. aureus MSSA476&item= Cc1ccc(C2=NN(C(=O)CCl)C(c3cccs3)C2)cc1 (stereo not drawn)
Reply text: 88.0419

Inquiry: GET /values?readout=% of control remaining&system=S. aureus MSSA476&item= Cn1c(-c2ccccc2)c(C(=O)CCl)c2ccccc21
Reply text: 49.0625

Inquiry: GET /values?readout=% of control remaining&system=S. aureus MSSA476&item= C=CC(=O)N(C)Cc1cn(C)nc1C(C)C
Reply text: 119.808

Inquiry: GET /values?readout=% of control remaining&system=S. aureus MSSA476&item= O=C(CCl)c1ccc2c(c1)-c1ccccc1C2
Reply text: 1.875

Inquiry: GET /values?readout=% of control remaining&system=S. aureus MSSA476&item= NC(=O)COc1ccc(C(=O)CCl)cc1 [10-M07, 2-[4-(2-chloroacetyl)phenoxy]acetamide]
Reply text: 111.563

Proceed to the following item.
Inquiry: GET /values?readout=% of control remaining&system=S. aureus MSSA476&item= CCOc1ccc(C(=O)C(C)Cl)cc1 (stereo not drawn)
Reply text: 80.3125

----------
Test system: S. aureus MSSA476
Construct: MSSA476
Set-up: species or system S. aureus MSSA476 (TSB) or V. cholerae SAD30 (LB); 384-well bacterial growth screen at 25 uM, OD600 relative to DMSO control
Details: relative growth, OD600, TSB; 25 µM; inhibitor
Among all 3,200 compounds or so, about 75 (2%) showed an effect of 50% or more. What follows is part of a selection rich in strong results, with near analogues and random picks from the rest.
TEST_READOUT: % of control remaining
Write the numeric value and append its unit.

Below, 3 molecules whose answers are already recorded.
Inquiry: GET /values?readout=% of control remaining&system=S. aureus MSSA476&item= O=C1C=CC(=O)N1c1ccc(F)c(Cl)c1
Reply text: 109.688%

Inquiry: GET /values?readout=% of control remaining&system=S. aureus MSSA476&item= C[C@H]1CN(C(=O)CCl)CCN1C(=O)c1cscn1
Reply text: 92.5319%

Inquiry: GET /values?readout=% of control remaining&system=S. aureus MSSA476&item= O=C1C=CC(=O)N1c1ccc2ccccc2c1
Reply text: 3.125%

Continuing:
Inquiry: GET /values?readout=% of control remaining&system=S. aureus MSSA476&item= O=C(O)c1csc(C(=O)CCl)c1
Reply text: 88.4375%

Inquiry: GET /values?readout=% of control remaining&system=S. aureus MSSA476&item= O=C(CCl)NCc1cc([N+](=O)[O-])ccc1O
Reply text: 92.6155%

Inquiry: GET /values?readout=% of control remaining&system=S. aureus MSSA476&item= COc1ccc(N2C(=O)C=CC2=O)c([N+](=O)[O-])c1
Reply text: 100%

Inquiry: GET /values?readout=% of control remaining&system=S. aureus MSSA476&item= Cc1cc(C=C(C#N)C(=O)Nc2ccccc2)c(C)n1C1CC1
Reply text: 129.793%

Inquiry: GET /values?readout=% of control remaining&system=S. aureus MSSA476&item= O=C(CCl)c1cscn1
Reply text: 27.8125%

Inquiry: GET /values?readout=% of control remaining&system=S. aureus MSSA476&item= O=C(CCl)NSc1ccc([N+](=O)[O-])cc1
Reply text: 1.906%

Inquiry: GET /values?readout=% of control remaining&system=S. aureus MSSA476&item= CC(Cl)C(=O)Nc1sc2c(c1C#N)CCCCC2 (centres unmarked)
Reply text: 104.918%

Inquiry: GET /values?readout=% of control remaining&system=S. aureus MSSA476&item= COc1ccccc1N1C(=O)C=CC1=O
Reply text: 118.438%

----------
System: S. aureus MSSA476
Construct: MSSA476
Parameters: species or system S. aureus MSSA476 (TSB) or V. cholerae SAD30 (LB); 384-well bacterial growth screen at 25 uM, OD600 relative to DMSO control
Conditions: relative growth, OD600, TSB; 25 µM; inhibitor
Among all 3,200 compounds or so, about 75 (2%) showed an effect of 50% or more. Shown is part of a subset that was picked to be rich in strong results.
With a cut-off of 70%, any % of control remaining strictly below it is called y; any % of control remaining meeting it or above is called n.

Reference set, count: 3
Inquiry: A record lists CC(NC(=O)C(C#N)=Cc1ccccc1F)c1ccccc1 (centres unmarked) . Is its % of control remaining below 70%?
Reply text: n

Inquiry: A record lists N#CC(=Cc1cccc(Cl)c1Cl)C(=O)NCc1ccccc1 . Is its % of control remaining below 70%?
Reply text: y

Inquiry: A record lists O=CN1CCc2cc(C(=O)CCl)ccc21 . Is its % of control remaining below 70%?
Reply text: n

Continuing:
Inquiry: A record lists CC(NC(=O)C(C#N)=Cc1cccc(Cl)c1Cl)c1ccccc1 (centres unmarked) . Is its % of control remaining below 70%?
Reply text: y

Inquiry: A record lists CC(=O)c1ccc(NC(=O)CCl)cc1 [4-G07, N-(4-acetylphenyl)-2-chloroacetamide] . Is its % of control remaining below 70%?
Reply text: n

Inquiry: A record lists CS(=O)(=O)NCCc1ccc(C(=O)CCl)cc1 . Is its % of control remaining below 70%?
Reply text: n

Inquiry: A record lists COc1ccccc1NC(=O)c1ccc(NC(=O)CCl)cc1 . Is its % of control remaining below 70%?
Reply text: n

Inquiry: A record lists N#Cc1c(NC(=O)CCl)oc(-c2ccco2)c1-c1ccco1 . Is its % of control remaining below 70%?
Reply text: y

Inquiry: A record lists CC1Cc2cc(C(=O)CCl)ccc2N1S(C)(=O)=O (centres unmarked) . Is its % of control remaining below 70%?
Reply text: y

Inquiry: A record lists O=C(CCl)c1ccc(C(F)(F)F)cc1 . Is its % of control remaining below 70%?
Reply text: n

Inquiry: A record lists CC(=O)N1CCc2cc(C(=O)C(C)Cl)ccc21 (centres unmarked) . Is its % of control remaining below 70%?
Reply text: n

Inquiry: A record lists NC(=O)Nc1ccc(C(=O)CCl)cc1 [10-J07, [4-(2-chloroacetyl)phenyl]urea] . Is its % of control remaining below 70%?
Reply text: y
